Consider the following binders and their measured interaction score readings.
Target: T1, 4H1804-bA
T1 chain: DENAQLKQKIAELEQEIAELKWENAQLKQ
Assay: two-hybrid library CCNG1;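 note: natural log of median RNA to DNA barcode read ratio; higher means stronger binding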
Write the number on its own, no unit after it.

Example results:
DENAQLKQKIAELEQEIAELKWENAQLKQ [4H1804-bA] : 0.9
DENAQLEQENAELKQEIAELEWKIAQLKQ [4H1222-bA] : -0.0181
DENAQLEQKIAELKQKNAELEWEIAQLEQ [4H1393-bA] : -1.14

Now take the following binder into account.
Request: interaction score for DENAQLKQEIAELKQENAELKWKIAQLEQ [4H1629-bA] ?
Result: -1.39
